molecular target: human muscarinic M3 receptor (Homo sapiens (Human), UniProt P20309); assay: Binding assay on human muscarinic M3 receptor ([3H]-methyl scopolamine displacement); details: membranes overexpressing human M3 receptor, Ki from IC50 by Cheng-Prusoff, read-out: Binding Affinity to M3 Receptor, Ki
Sequence (P20309 whole entry): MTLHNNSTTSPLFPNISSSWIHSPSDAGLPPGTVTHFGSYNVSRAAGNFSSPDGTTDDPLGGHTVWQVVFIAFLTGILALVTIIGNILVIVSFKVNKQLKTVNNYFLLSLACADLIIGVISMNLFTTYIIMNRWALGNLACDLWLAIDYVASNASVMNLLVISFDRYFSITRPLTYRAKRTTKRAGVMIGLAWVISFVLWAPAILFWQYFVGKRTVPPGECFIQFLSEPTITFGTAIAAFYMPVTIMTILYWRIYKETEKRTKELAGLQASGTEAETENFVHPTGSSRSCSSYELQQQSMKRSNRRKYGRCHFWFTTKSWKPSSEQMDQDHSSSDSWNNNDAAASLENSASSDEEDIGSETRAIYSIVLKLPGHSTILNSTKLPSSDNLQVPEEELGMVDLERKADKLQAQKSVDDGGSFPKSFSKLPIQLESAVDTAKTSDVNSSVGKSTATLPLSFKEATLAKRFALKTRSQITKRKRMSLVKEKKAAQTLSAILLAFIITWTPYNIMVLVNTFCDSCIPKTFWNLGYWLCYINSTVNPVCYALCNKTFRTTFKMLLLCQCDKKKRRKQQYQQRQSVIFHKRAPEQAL
pKi: −log10 of the molar value.
Listed here: items and their measured pKi.

# Compound, pKi
records = [
    ("Cc1cccc(-c2ccccc2NC(=O)OC[C@H]2CCCN2C)c1 [Example 110]", 8.04),
    ("CN1CCC[C@H]1COC(=O)Nc1ccc(F)cc1-c1cccc(N)c1 [Example 213]", 7.28),
    ("CN1CC[C@H](COC(=O)Nc2ccc(F)cc2-c2cc(O)cc(Cl)c2)C1 [Example 123]", 7.28),
    ("CN1CCC[C@@H]1COC(=O)Nc1ccccc1-c1ccccc1 [Example 109]", 8.27),
    ("CN1CCCC1CCOC(=O)Nc1ccc(O)cc1-c1ccc(F)c(Cl)c1 (stereo not drawn) [Example 77]", 7.66),
    ("CN1CCC[C@H]1COC(=O)Nc1ccccc1-c1cc(F)cc(Cl)c1 [Example 148]", 7.99),
    ("CCN1CCC[C@H]1COC(=O)Nc1ccccc1-c1ccccc1 [Example 106]", 9.10),
    ("COc1ccc(NC(=O)OC[C@@H]2CCCN2C)c(-c2ccccc2)c1 [Example 222]", 7.55),
    ("CN1CC[C@@H](COC(=O)Nc2ccccc2-c2cccc(F)c2)C1 [Example 113]", 8.72),
]

====

target: human muscarinic M3 receptor (Homo sapiens (Human)); experiment: Binding assay on human muscarinic M3 receptor ([3H]-methyl scopolamine displacement); conditions: membranes overexpressing human M3 receptor, Ki from IC50 by Cheng-Prusoff, read-out: Binding Affinity to M3 Receptor, Ki
pKi: −log10 of the molar value.

# Compound, pKi
measured = [
    ("CN1CC[C@@H](COC(=O)Nc2ccccc2-c2cccc(N)c2)C1", 7.78),
    ("Cc1ccc(-c2cc(F)ccc2NC(=O)OCCC2CCCN2C)cc1C (stereo not drawn)", 8.19),
    ("CN1CCCC1CCOC(=O)Nc1cc(F)ccc1-c1ccccc1 (stereo not drawn)", 8.19),
    ("CN1CCCC1CCOC(=O)Nc1ccccc1-c1cc(F)c(F)c(F)c1 (stereo not drawn)", 7.94),
    ("CN1CCC[C@H]1COC(=O)Nc1ccc(F)cc1-c1cc(F)cc(F)c1", 8.21),
    ("CC(C)N1CC[C@@H](COC(=O)Nc2ccccc2-c2ccc(F)c(Cl)c2)C1", 7.83),
    ("CN1CC[C@@H](COC(=O)Nc2ccc(F)cc2-c2cc(Cl)cc(Cl)c2)C1", 7.62),
    ("CN1CCCC1CCOC(=O)Nc1ccc(C(F)(F)F)cc1-c1cccc(F)c1 (stereo not drawn)", 6.52),
    ("CN1CCC[C@H]1COC(=O)Nc1ccc(F)cc1-c1ccc(F)cc1", 8.63),
]

====

target: human muscarinic M3 receptor (Homo sapiens (Human)); test: Antagonism assay on human muscarinic M3 receptor (carbachol-induced intracellular calcium, FLIPR Calcium 5, transfected Cos-7 cells); assay type: cell-based; conditions: functional inhibitory constant; carbachol-induced intracellular calcium in Cos-7 cells transfected with human M3 receptor
Test Readout: Ki

# Molecule, Value Observed
measured = [
    ("CN1CC[C@@H](COC(=O)Nc2ccc(F)cc2-c2cc(F)cc(Cl)c2)C1", "1.04 nM"),
    ("CCN1CC[C@@H](COC(=O)Nc2ccccc2-c2ccc(F)c(Cl)c2)C1", "1.34 nM"),
    ("CN1CCCC1CCOC(=O)Nc1ccc(F)cc1-c1cc(F)cc(Cl)c1 (centres unmarked)", "1.22 nM"),
    ("CN1CC[C@@H](COC(=O)Nc2ccc(F)cc2-c2cccc(F)c2)C1", "0.58 nM"),
    ("CN1CC[C@@H](COC(=O)Nc2ccc(Cl)cc2-c2ccc(F)c(Cl)c2)C1", "1.57 nM"),
    ("CN1CC[C@@H](COC(=O)Nc2ccccc2-c2cc(F)cc(Cl)c2)C1", "0.75 nM"),
    ("CN1CC[C@H](COC(=O)Nc2ccccc2-c2cccc(Cl)c2)C1", "0.77 nM"),
    ("CN1CC[C@@H](COC(=O)Nc2ccc(Cl)cc2-c2cccc(Cl)c2)C1", "2.97 nM"),
    ("CN1CC[C@@H](COC(=O)Nc2ccc(F)cc2-c2ccccc2F)C1", "1.42 nM"),
    ("Cc1cccc(-c2cc(F)ccc2NC(=O)OCCC2CCCN2C)c1 (centres unmarked)", "2.39 nM"),
    ("CN1CC[C@@H](COC(=O)Nc2ccccc2-c2ccc(F)c(F)c2)C1", "0.32 nM"),
]

====

Biological target: human muscarinic M3 receptor (Homo sapiens (Human))
Test: Binding assay on human muscarinic M3 receptor ([3H]-methyl scopolamine displacement)
Details: membranes overexpressing human M3 receptor, Ki from IC50 by Cheng-Prusoff, read-out: Binding Affinity to M3 Receptor, Ki
Protocol: [Experimental Example 1] Binding Assay on Human Muscarinic M3 Receptor Cell membrane proteins (Perkin Elmer) wherein human muscarinic M3 receptor was overexpressed, [^3H]-methyl scopolamine and test compounds in various concentration were cultured in 0.2 ml of Tris-HCl buffer at 25° C. for 120 minutes. […] The radioactivity of [^3H]-methyl scopolamine adsorbed on the filter was measured by a liquid scintillation counter. Non-specific binding was evaluated under existence of 5 μM of atropine. […]
pKi: −log10 of the molar value.

# Compound, pKi
records = [
    ("CN1CCCC1CCOC(=O)Nc1ccc(F)cc1-c1cccc(F)c1 (stereo not drawn) [Example 18]", 8.16),
    ("CN1CC[C@H](COC(=O)Nc2ccccc2-c2cc(F)cc(F)c2)C1 [Example 92]", 7.97),
    ("CN1CCC[C@H]1COC(=O)Nc1ccccc1-c1cc(F)c(F)cc1F [Example 163]", 7.79),
]

====

molecular target: human muscarinic M3 receptor (Homo sapiens (Human)); assay: Binding assay on human muscarinic M3 receptor ([3H]-methyl scopolamine displacement); details: membranes overexpressing human M3 receptor, Ki from IC50 by Cheng-Prusoff, read-out: Binding Affinity to M3 Receptor, Ki

# Molecule, Measure Unit, Relational Operator, Ki
records = [
    ("Cc1cccc(-c2ccccc2NC(=O)OC[C@@H]2CCN(C)C2)c1", "nM", "=", 2.43),
    ("CN1CC[C@H](COC(=O)Nc2ccc(F)cc2-c2cc(F)cc(Cl)c2)C1", "nM", "=", 12.6),
    ("CN1CCCC1CCOC(=O)Nc1ccc(F)cc1-c1ccc(F)c(F)c1 (stereo not shown)", "nM", "=", 9.21),
    ("CN1CCCC1CCOC(=O)Nc1ccc(F)cc1-c1cc(Cl)c(F)c(Cl)c1 (stereo not shown)", "nM", "=", 12.5),
    ("CN1CCCC1CCOC(=O)Nc1ccccc1-c1ccccc1N (stereo not shown)", "nM", ">", 1000),
    ("CN1CC[C@@H](COC(=O)Nc2ccc(F)cc2-c2cc(F)cc(F)c2)C1", "nM", "=", 6.27),
    ("CN1CCCC1CCOC(=O)Nc1ccc(F)cc1-c1cc(F)cc(F)c1 (stereo not shown)", "nM", "=", 20.7),
    ("CN1CCCC1CCOC(=O)Nc1ccc(F)cc1-c1ccc(F)c(Cl)c1 (stereo not shown)", "nM", "=", 1.34),
    ("COc1ccc(NC(=O)OC[C@@H]2CCCN2C)c(-c2cccc(F)c2)c1", "nM", "=", 121),
    ("CN1CCC[C@H]1COC(=O)Nc1ccccc1-c1cccc(N)c1", "nM", "=", 9.23),
]

====

Listed here: items and their measured pKi.
biological target: human muscarinic M3 receptor (Homo sapiens (Human)); experiment: Binding assay on human muscarinic M3 receptor ([3H]-methyl scopolamine displacement); conditions: membranes overexpressing human M3 receptor, Ki from IC50 by Cheng-Prusoff, read-out: Binding Affinity to M3 Receptor, Ki
pKi: −log10 of the molar value.

# Molecule, Assay Target, pKi
measured = [
    ("CN1CC[C@@H](COC(=O)Nc2ccc(F)cc2-c2cc(Cl)cc(C(F)(F)F)c2)C1 [Example 140]", "human muscarinic M3 receptor (Homo sapiens (Human))", "< 6.00"),
    ("CN1CCC[C@H]1COC(=O)Nc1ccc(F)cc1-c1cc(Cl)cc(C(F)(F)F)c1 [Example 215]", "human muscarinic M3 receptor (Homo sapiens (Human))", "< 6.00"),
    ("CN1CC[C@@H](COC(=O)Nc2ccccc2-c2cccc(C(N)=O)c2)C1 [Example 153]", "human muscarinic M3 receptor (Homo sapiens (Human))", "< 6.00"),
]

====

biological target: human muscarinic M3 receptor (Homo sapiens (Human), UniProt P20309); assay: Binding assay on human muscarinic M3 receptor ([3H]-methyl scopolamine displacement); details: membranes overexpressing human M3 receptor, Ki from IC50 by Cheng-Prusoff, read-out: Binding Affinity to M3 Receptor, Ki
Listed here: items and their measured Ki.

# Compound, Assay Target, Relational Operator, Ki (nM)
data = [
    ("CN1CCCC1CCOC(=O)Nc1ccc(O)cc1-c1cc(Cl)cc(Cl)c1 (stereo not shown)", "human muscarinic M3 receptor (Homo sapiens (Human), UniProt P20309)", ">", 1000),
    ("CN1CC[C@@H](COC(=O)Nc2ccccc2-c2ccc(C=O)c(F)c2)C1", "human muscarinic M3 receptor (Homo sapiens (Human), UniProt P20309)", ">", 1000),
    ("CN1CCC[C@H]1COC(=O)Nc1ccccc1-c1cccc(C#N)c1", "human muscarinic M3 receptor (Homo sapiens (Human), UniProt P20309)", "=", 282),
    ("CN1CCCC1CCOC(=O)Nc1ccccc1-c1ccc(F)cc1F (stereo not shown)", "human muscarinic M3 receptor (Homo sapiens (Human), UniProt P20309)", "=", 18.9),
    ("CN1CCCC1CCOC(=O)Nc1ccc(Cl)cc1-c1ccccc1 (stereo not shown)", "human muscarinic M3 receptor (Homo sapiens (Human), UniProt P20309)", "=", 6.98),
    ("CN1CCC[C@H]1COC(=O)Nc1ccccc1-c1cccc(O)c1", "human muscarinic M3 receptor (Homo sapiens (Human), UniProt P20309)", "=", 22.9),
    ("CN1CCCC1CCOC(=O)Nc1ccccc1-c1ccc([N+](=O)[O-])cc1 (stereo not shown)", "human muscarinic M3 receptor (Homo sapiens (Human), UniProt P20309)", "=", 467),
    ("CN1CCCC1CCOC(=O)Nc1ccc(F)cc1-c1ccccc1 (stereo not shown)", "human muscarinic M3 receptor (Homo sapiens (Human), UniProt P20309)", "=", 2.25),
    ("COc1ccc(-c2ccccc2NC(=O)OCCC2CCCN2C)cc1 (stereo not shown)", "human muscarinic M3 receptor (Homo sapiens (Human), UniProt P20309)", "=", 1100),
    ("Cc1ccc(NC(=O)OCCC2CCCN2C)c(-c2cccc(F)c2)c1 (stereo not shown)", "human muscarinic M3 receptor (Homo sapiens (Human), UniProt P20309)", "=", 56.7),
    ("CN1CCCC1CCOC(=O)Nc1ccccc1-c1cccc(Cl)c1 (stereo not shown)", "human muscarinic M3 receptor (Homo sapiens (Human), UniProt P20309)", "=", 1.33),
    ("CCc1cccc(-c2cc(F)ccc2NC(=O)OCCC2CCCN2C)c1 (stereo not shown)", "human muscarinic M3 receptor (Homo sapiens (Human), UniProt P20309)", "=", 95.5),
    ("CN1CCC[C@H]1COC(=O)Nc1ccc(F)cc1-c1cccc(C(F)(F)F)c1", "human muscarinic M3 receptor (Homo sapiens (Human), UniProt P20309)", "=", 9.15),
    ("CN1CCCC1CCOC(=O)Nc1ccccc1-c1ccccc1O (stereo not shown)", "human muscarinic M3 receptor (Homo sapiens (Human), UniProt P20309)", ">", 1000),
    ("CN1CCC[C@H]1COC(=O)Nc1ccccc1-c1cccc(Cl)c1", "human muscarinic M3 receptor (Homo sapiens (Human), UniProt P20309)", "=", 0.63),
    ("CN1CCCC1CCOC(=O)Nc1ccc(F)cc1-c1ccc(Cl)c(Cl)c1 (stereo not shown)", "human muscarinic M3 receptor (Homo sapiens (Human), UniProt P20309)", "=", 1.48),
    ("CN1CCC[C@H]1COC(=O)Nc1ccc(F)cc1-c1cc(F)cc(Cl)c1", "human muscarinic M3 receptor (Homo sapiens (Human), UniProt P20309)", "=", 4.6),
    ("CN1CCC[C@H]1COC(=O)Nc1ccc(F)cc1-c1ccc(Cl)c(Cl)c1", "human muscarinic M3 receptor (Homo sapiens (Human), UniProt P20309)", "=", 6.32),
    ("COc1ccc(NC(=O)OCCC2CCCN2C)c(-c2cccc(F)c2)c1 (stereo not shown)", "human muscarinic M3 receptor (Homo sapiens (Human), UniProt P20309)", "=", 218),
    ("CN1CCC[C@H]1COC(=O)Nc1ccc(F)cc1-c1cccc(C#N)c1", "human muscarinic M3 receptor (Homo sapiens (Human), UniProt P20309)", ">", 1000),
    ("COc1ccc(NC(=O)OC[C@@H]2CCN(C)C2)c(-c2ccc(F)c(Cl)c2)c1", "human muscarinic M3 receptor (Homo sapiens (Human), UniProt P20309)", "=", 77.4),
    ("CN1CCCC1CCOC(=O)Nc1ccc(Cl)cc1-c1cccc(Cl)c1 (stereo not shown)", "human muscarinic M3 receptor (Homo sapiens (Human), UniProt P20309)", "=", 8.17),
    ("CN1CC[C@H](COC(=O)Nc2ccc(F)cc2-c2ccc(Cl)cc2)C1", "human muscarinic M3 receptor (Homo sapiens (Human), UniProt P20309)", "=", 69.4),
    ("CN1CC[C@H](COC(=O)Nc2ccccc2-c2ccc(F)c(Cl)c2)C1", "human muscarinic M3 receptor (Homo sapiens (Human), UniProt P20309)", "=", 1.75),
    ("CN1CC[C@H](COC(=O)Nc2ccccc2-c2cc(F)cc(Cl)c2)C1", "human muscarinic M3 receptor (Homo sapiens (Human), UniProt P20309)", "=", 9.7),
    ("CCN1CC[C@@H](COC(=O)Nc2ccccc2-c2cccc(C)c2)C1", "human muscarinic M3 receptor (Homo sapiens (Human), UniProt P20309)", "=", 14.2),
    ("Cc1cc(C)cc(-c2cc(F)ccc2NC(=O)OC[C@@H]2CCCN2C)c1", "human muscarinic M3 receptor (Homo sapiens (Human), UniProt P20309)", "=", 110),
    ("CN1CC[C@@H](COC(=O)Nc2ccc(F)cc2-c2cc(O)cc(Cl)c2)C1", "human muscarinic M3 receptor (Homo sapiens (Human), UniProt P20309)", "=", 46.9),
]
